# method: physchem
# test-conditions: 25 °C, fassif, thermodynamic from solid
quantity: solubility at 4 h

{"columns": ["molecule", "reported-measurement"],
 "data": [
  ["O=C1C(O)=C([C@H]2CC[C@H](c3ccc(Cl)cc3)CC2)C(=O)c2ccccc21 [Atovaquone]", "< 2 µg/mL"]
]}

====

# method: FaSSIF solubility
# test-conditions: 25 °C, thermodynamic from solid

{"columns": ["compound", "solubility at 4 h"],
 "data": [
  ["CC(=O)CC(c1ccccc1)c1c(O)c2ccccc2oc1=O (stereo not shown)", "10 to 25 µg/mL"]
]}
